System: Escherichia coli TOP10;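 further: peptides expressed intracellularly from a pBAD plasmid library in pooled LB shake-flask culture, induced with 0.3% L-arabinose, DNA abundance read by NGS, three biological replicates, DESeq2 with apeglm shrinkage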
PROCEDURE DETAILS: shrunken log2 fold change of peptide-encoding DNA abundance (4.5 h post-induction vs induction); higher = less antimicrobial activity (less host growth inhibition)
ASSAY CONTEXT: time post-induction: 4.5 h; library: site-saturation at positions 5, 18, 19, 20
We use 0.1 as the dividing line for shrunken log2 fold change: on or above the line is Fulfilled, below is Not fulfilled.

| BIOSEQUENCE | ASSIGNED CATEGORY |
| --- | --- |
| RRIRERPPRLPRPRPRPPLKPRP | Fulfilled |
| RRIRQRPPRLPRPRPRPILPPRP | Not fulfilled |
| RRIRQRPPRLPRPRPRPSPYPRP | Not fulfilled |
| RRIRNRPPRLPRPRPRPPSQPRP | Fulfilled |
| RRIRSRPPRLPRPRPRPWFKPRP | Not fulfilled |
| RRIRTRPPRLPRPRPRPNAFPRP | Not fulfilled |
| RRIRFRPPRLPRPRPRPTNAPRP | Not fulfilled |
| RRIRNRPPRLPRPRPRPPHGPRP | Not fulfilled |
| RRIRWRPPRLPRPRPRPYCIPRP | Not fulfilled |
| RRIRARPPRLPRPRPRPRQDPRP | Fulfilled |
| RRIRNRPPRLPRPRPRPSESPRP | Not fulfilled |
| RRIRLRPPRLPRPRPRPRFNPRP | Not fulfilled |
| RRIRERPPRLPRPRPRPGDFPRP | Not fulfilled |
| RRIRARPPRLPRPRPRPILAPRP | Fulfilled |
| RRIRQRPPRLPRPRPRPLVTPRP | Not fulfilled |
| RRIRLRPPRLPRPRPRPYWKPRP | Not fulfilled |
| RRIRSRPPRLPRPRPRPRGTPRP | Fulfilled |
| RRIRFRPPRLPRPRPRPEMLPRP | Not fulfilled |
| RRIRTRPPRLPRPRPRPWEAPRP | Fulfilled |
| RRIRCRPPRLPRPRPRPAKPPRP | Not fulfilled |
| RRIRNRPPRLPRPRPRPGYGPRP | Not fulfilled |
| RRIRSRPPRLPRPRPRPDQNPRP | Not fulfilled |
| RRIRFRPPRLPRPRPRPWHVPRP | Not fulfilled |
| RRIRVRPPRLPRPRPRPPAFPRP | Not fulfilled |
| RRIRCRPPRLPRPRPRPDRVPRP | Not fulfilled |
| RRIRYRPPRLPRPRPRPTWVPRP | Fulfilled |
| RRIRRRPPRLPRPRPRPCPAPRP | Fulfilled |
| RRIRTRPPRLPRPRPRPMERPRP | Not fulfilled |
| RRIRNRPPRLPRPRPRPHSQPRP | Not fulfilled |
| RRIRVRPPRLPRPRPRPWHCPRP | Not fulfilled |
| RRIRGRPPRLPRPRPRPATCPRP | Fulfilled |
| RRIRRRPPRLPRPRPRPQAAPRP | Not fulfilled |
| RRIRFRPPRLPRPRPRPCNRPRP | Not fulfilled |
| RRIRRRPPRLPRPRPRPLHTPRP | Fulfilled |
| RRIRCRPPRLPRPRPRPYLVPRP | Not fulfilled |
| RRIRERPPRLPRPRPRPKNPPRP | Not fulfilled |
| RRIRERPPRLPRPRPRPKFLPRP | Not fulfilled |
| RRIRGRPPRLPRPRPRPIMVPRP | Not fulfilled |
| RRIRERPPRLPRPRPRPCNDPRP | Not fulfilled |
| RRIRRRPPRLPRPRPRPNDAPRP | Not fulfilled |
| RRIRTRPPRLPRPRPRPVNNPRP | Not fulfilled |
| RRIRFRPPRLPRPRPRPEEQPRP | Fulfilled |
| RRIRGRPPRLPRPRPRPAAGPRP | Fulfilled |
| RRIRFRPPRLPRPRPRPWLTPRP | Not fulfilled |
| RRIRMRPPRLPRPRPRPPECPRP | Fulfilled |
| RRIRHRPPRLPRPRPRPPQFPRP | Not fulfilled |
| RRIRWRPPRLPRPRPRPGFNPRP | Not fulfilled |
| RRIRYRPPRLPRPRPRPPNRPRP | Not fulfilled |
| RRIRNRPPRLPRPRPRPDKWPRP | Not fulfilled |
| RRIRGRPPRLPRPRPRPLWYPRP | Fulfilled |
| RRIRHRPPRLPRPRPRPYQEPRP | Not fulfilled |
| RRIRWRPPRLPRPRPRPNGKPRP | Fulfilled |
| RRIRQRPPRLPRPRPRPTGIPRP | Not fulfilled |
| RRIRFRPPRLPRPRPRPFFIPRP | Not fulfilled |
| RRIRRRPPRLPRPRPRPKGWPRP | Fulfilled |
| RRIRERPPRLPRPRPRPQVQPRP | Not fulfilled |
| RRIRSRPPRLPRPRPRPPQTPRP | Fulfilled |
| RRIRLRPPRLPRPRPRPKMDPRP | Not fulfilled |
| RRIRWRPPRLPRPRPRPTCRPRP | Not fulfilled |
| RRIRTRPPRLPRPRPRPEWCPRP | Fulfilled |
| RRIRRRPPRLPRPRPRPLSVPRP | Fulfilled |
| RRIRRRPPRLPRPRPRPTFIPRP | Not fulfilled |
| RRIRCRPPRLPRPRPRPGKDPRP | Fulfilled |
